List of IC50 values.
Test system: SW620 cells
EXPERIMENT_NOTES: SW620 cell proliferation assay (colorectal cancer, G12V), 5 days
Format: cell-based
EXPERIMENTAL_SETUP: Homo sapiens, SW-620, 120 h

COMPOUND	IC50, µM
CC(C)c1ccc(CNC(=O)[C@@H]2C[C@@H](O)CN2C(=O)C(c2cc(OCCCCN3CCCN(c4nccc(-c5noc([C@@]6(C)CCCc7sc(N)c(C#N)c76)n5)n4)[C@@H](C)C3)no2)C(C)C)cc1 (stereo partly shown)	0.267
Cc1ncsc1-c1ccc(CNC(=O)[C@@H]2C[C@@H](O)CN2C(=O)C(c2cc(OCCCCCCN3CCCN(c4nccc(-c5noc([C@@]6(C)CCCc7sc(N)c(C#N)c76)n5)n4)[C@@H](C)C3)no2)C(C)C)cc1 (stereo partly shown)	0.0504
Cc1ncsc1-c1ccc(CNC(=O)[C@@H]2C[C@@H](O)CN2C(=O)C(c2cc(OCCCCN3CCCN(c4nccc(-c5noc([C@@]6(C)CCCc7sc(N)c(C#N)c76)n5)n4)[C@@H](C)C3)no2)C(C)C)cc1F (stereo partly shown)	0.0479
Cc1ncsc1-c1ccc(CNC(=O)[C@@H]2C[C@@H](O)CN2C(=O)[C@@H](c2cc(OCCCCN3CCCN(c4nccc(-c5noc([C@@]6(C)CCCc7sc(N)c(C#N)c76)n5)n4)[C@@H](C)C3)no2)C(C)C)cc1 (single isomer, unassigned)	0.0149

###

STUDY_SYSTEM: KRAS(G12D) (Homo sapiens, UniProt P01116, G12D)
Construct: introduced immediately downstream of the initiating Methionine codon of the endogenous KRAS locus; host or cells: GP5d-HiBit-KRAS(G12D), a CRISPR knock-in at the endogenous locus
Sequence (P01116 1-188 isoform P01116-2 G12D): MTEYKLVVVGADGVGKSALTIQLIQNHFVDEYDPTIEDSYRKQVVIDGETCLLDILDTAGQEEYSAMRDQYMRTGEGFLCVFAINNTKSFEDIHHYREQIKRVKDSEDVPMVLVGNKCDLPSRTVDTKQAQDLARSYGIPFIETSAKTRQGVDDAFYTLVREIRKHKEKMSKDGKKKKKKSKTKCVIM
EXPERIMENT_NOTES: HiBit degradation assay in GP5d-HiBit-KRAS(G12D) cells (18 h; DC50, Dmax)
Format: cell-based
Could you please mark YES for values of Dmax 18 h below 90 % Ctrl and NO for values at or above it?

MOLECULE	ANSWER_LABEL
Cc1ncsc1-c1ccc(CNC(=O)[C@@H]2C[C@@H](O)CN2C(=O)C(c2cc(OCCCCN3CCN(c4nccc(-c5noc([C@@]6(C)CCCc7sc(N)c(C#N)c76)n5)n4)[C@@H](C)C3)no2)C(C)C)cc1 (stereo partly drawn) [I-11]	YES
Cc1ncsc1-c1ccc([C@@H](NC(=O)[C@@H]2C[C@@H](O)CN2C(=O)[C@@H](C(C)C)n2cc(OCCCN3CCCN(c4nccc(-c5noc([C@@]6(C)CCCc7sc(N)c(C#N)c76)n5)n4)[C@@H](C)C3)nn2)[C@H](O)C(C)C)cc1 (single isomer, unassigned) [I-42]	YES
Cc1ncsc1-c1ccc([C@H](CCO)NC(=O)[C@@H]2C[C@@H](O)CN2C(=O)[C@H](C(C)C)n2cc(OCCCCN3CCCN(c4nccc(-c5noc([C@@]6(C)CCCc7sc(N)c(C#N)c76)n5)n4)[C@@H](C)C3)nn2)cc1 [I-38]	NO
Cc1ncsc1-c1ccc([C@H](CO)NC(=O)[C@@H]2C[C@@H](O)CN2C(=O)[C@H](C(C)C)n2cc(OC(C)CCCN3CCCN(c4nccc(-c5noc([C@@]6(C)CCCc7sc(N)c(C#N)c76)n5)n4)[C@@H](C)C3)nn2)cc1 (stereo partly drawn) [I-31]	NO
Cc1ncsc1-c1ccc([C@H](CO)NC(=O)[C@@H]2C[C@@H](O)CN2C(=O)[C@H](C(C)C)n2cc(OCCCCN3CCCN(c4nccc(-c5noc([C@@]6(C)CCCc7sc(N)c(C#N)c76)n5)n4)[C@@H](C)C3)nn2)cc1 [I-29]	NO
Cc1ncsc1-c1ccc([C@H](CO)NC(=O)[C@@H]2C[C@@H](O)CN2C(=O)C(C(C)C)n2cc(OCCCCN3C[C@H](C)N(c4nccc(-c5noc([C@@]6(C)CCCc7sc(N)c(C#N)c76)n5)n4)CCC3(C)C)nn2)cc1 (stereo partly drawn) [I-32]	YES

###

STUDY_SYSTEM: KRAS(G12D) (Homo sapiens, UniProt P01116, G12D)
Construct: introduced immediately downstream of the initiating Methionine codon of the endogenous KRAS locus; host or cells: GP5d-HiBit-KRAS(G12D), a CRISPR knock-in at the endogenous locus
EXPERIMENT_NOTES: HiBit degradation assay in GP5d-HiBit-KRAS(G12D) cells (18 h; DC50, Dmax)
Type: cell-based
Could you please mark T for values of DC50 below 9 nM and F for values at or above it?

COMPOUND	ANSWER_LABEL
Cc1ncsc1-c1ccc([C@@H](NC(=O)[C@@H]2C[C@@H](O)CN2C(=O)[C@@H](C(C)C)n2cc(OCCCN3CCCN(c4nccc(-c5noc([C@@]6(C)CCCc7sc(N)c(C#N)c76)n5)n4)[C@@H](C)C3)nn2)[C@H](O)C(C)C)cc1 (single isomer, unassigned)	F
CC(C)C(C(=O)N1C[C@H](O)C[C@H]1C(=O)NCc1ccc(C#N)cc1)c1cc(OCCCCN2CCCN(c3nccc(-c4noc([C@@]5(C)CCCc6sc(N)c(C#N)c65)n4)n3)[C@@H](C)C2)no1 (stereo partly drawn)	T
Cc1ncsc1-c1ccc(CNC(=O)[C@@H]2C[C@@H](O)CN2C(=O)[C@@H](c2cc(OCCCCN3CCCN(c4nccc(-c5noc([C@@]6(C)CCCc7sc(N)c(C#N)c76)n5)n4)[C@@H](C)C3)no2)C(C)C)cc1 (single isomer, unassigned)	T
Cc1ncsc1-c1ccc(CNC(=O)[C@@H]2C[C@@H](O)CN2C(=O)[C@H](c2cc(OCCCCN3CCCN(c4nccc(-c5noc([C@@]6(C)CCCc7sc(N)c(C#N)c76)n5)n4)[C@@H](C)C3)no2)C(C)C)cc1 (single isomer, unassigned)	F
Cc1ncsc1-c1ccc(CNC(=O)[C@@H]2C[C@@H](O)CN2C(=O)C(c2cc(OCCCN3CCCN(c4ccnc(-c5noc([C@@]6(C)CCCc7sc(N)c(C#N)c76)n5)n4)[C@@H](C)C3)no2)C(C)C)cc1 (stereo partly drawn)	F
CC(C)C(C(=O)N1C[C@H](O)C[C@H]1C(=O)NCc1ccc(C#N)c(Cl)c1)c1cc(OCCCCN2CCCN(c3nccc(-c4noc([C@@]5(C)CCCc6sc(N)c(C#N)c65)n4)n3)[C@@H](C)C2)no1 (stereo partly drawn)	T
Cc1ncsc1-c1ccc([C@H](CO)NC(=O)[C@@H]2C[C@@H](O)CN2C(=O)[C@H](C(C)C)n2cc(OCCCCN3CCCN(c4nccc(-c5noc([C@@]6(C)CCCc7sc(N)c(C#N)c76)n5)n4)[C@@H](C)C3)nn2)cc1	T
Cc1ncsc1-c1ccc(CNC(=O)[C@@H]2C[C@@H](O)CN2C(=O)C(C(C)C)n2cc(CCCCCN3CCCN(c4nccc(-c5noc([C@@]6(C)CCCc7sc(N)c(C#N)c76)n5)n4)[C@@H](C)C3)nn2)cc1 (stereo partly drawn)	F
Cc1ncsc1-c1ccc([C@H](CCO)NC(=O)[C@@H]2C[C@@H](O)CN2C(=O)[C@H](C(C)C)n2cc(OCCCCN3CCCN(c4nccc(-c5noc([C@@]6(C)CCCc7sc(N)c(C#N)c76)n5)n4)[C@@H](C)C3)nn2)cc1	T
Cc1ncsc1-c1ccc([C@H](CO)NC(=O)[C@@H]2C[C@@H](O)CN2C(=O)[C@H](C(C)C)n2cc(OCCCC(C)N3CCCN(c4nccc(-c5noc([C@@]6(C)CCCc7sc(N)c(C#N)c76)n5)n4)[C@@H](C)C3)nn2)cc1 (stereo partly drawn)	T
CC(C)C(C(=O)N1C[C@H](O)C[C@H]1C(=O)NCc1ccc(Cl)cc1)c1cc(OCCCCN2CCCN(c3nccc(-c4noc([C@@]5(C)CCCc6sc(N)c(C#N)c65)n4)n3)[C@@H](C)C2)no1 (stereo partly drawn)	T
Cc1ncsc1-c1ccc(CNC(=O)[C@@H]2C[C@@H](O)CN2C(=O)C(c2cc(OCCCCCCN3CCCN(c4nccc(-c5noc([C@@]6(C)CCCc7sc(N)c(C#N)c76)n5)n4)[C@@H](C)C3)no2)C(C)C)cc1 (stereo partly drawn)	F

###

Test system: NCI-H358 cells
EXPERIMENT_NOTES: NCI-H358 CTG proliferation assay (120 h) (NSCLC, G12C)
Format: cell-based
EXPERIMENTAL_SETUP: Homo sapiens, assay 1, read-out: H358 (assay 1) IC50

MOLECULE	STUDY_SYSTEM	IC50 (nM)
Cc1ncsc1-c1ccc([C@H](CO)NC(=O)[C@@H]2C[C@@H](O)CN2C(=O)[C@H](C(C)C)n2cc(OC(C)CCCN3CCCN(c4nccc(-c5noc([C@@]6(C)CCCc7sc(N)c(C#N)c76)n5)n4)[C@@H](C)C3)nn2)cc1 (stereo partly shown)	NCI-H358 cells	159
Cc1ncsc1-c1ccc(CNC(=O)[C@@H]2C[C@@H](O)CN2C(=O)C(C(C)C)n2cc(CCCCCN3CCCN(c4nccc(-c5noc([C@@]6(C)CCCc7sc(N)c(C#N)c76)n5)n4)[C@@H](C)C3)nn2)cc1 (stereo partly shown)	NCI-H358 cells	160
Cc1ncsc1-c1ccc(CNC(=O)[C@@H]2C[C@@H](O)CN2C(=O)C(c2cc(OCCCN3CCCN(c4nccc(-c5noc([C@@]6(C)CCCc7sc(N)c(C#N)c76)n5)n4)[C@@H](C)C3)no2)C(C)C)cc1 (stereo partly shown)	NCI-H358 cells	151
CC(C)C(C(=O)N1C[C@H](O)C[C@H]1C(=O)NCc1ccc(C#N)cc1)c1cc(OCCCCN2CCCN(c3nccc(-c4noc([C@@]5(C)CCCc6sc(N)c(C#N)c65)n4)n3)[C@@H](C)C2)no1 (stereo partly shown)	NCI-H358 cells	231
